target: T1, NY-ESO-1 peptide on HLA-B*07:02 (human); assay: data from [11]; method not given; soluble, other
T1 peptide: APRGPHGGAASGL
measurementLabel: Kd

Would you kindly share the measured Kd for KFJ5 (TCR) alpha TRAV4*01 CDR3: LVGEILDNFNK beta TRBV28*01 CDR3: ASSQRQEGDTQY ?
> 200 µM
